- SYSTEM TESTED: SWI/SNF-related matrix-associated actin-dependent regulator of chromatin subfamily A member 2 (Homo sapiens, UniProt P51531)
- Sequence (P51531 whole entry): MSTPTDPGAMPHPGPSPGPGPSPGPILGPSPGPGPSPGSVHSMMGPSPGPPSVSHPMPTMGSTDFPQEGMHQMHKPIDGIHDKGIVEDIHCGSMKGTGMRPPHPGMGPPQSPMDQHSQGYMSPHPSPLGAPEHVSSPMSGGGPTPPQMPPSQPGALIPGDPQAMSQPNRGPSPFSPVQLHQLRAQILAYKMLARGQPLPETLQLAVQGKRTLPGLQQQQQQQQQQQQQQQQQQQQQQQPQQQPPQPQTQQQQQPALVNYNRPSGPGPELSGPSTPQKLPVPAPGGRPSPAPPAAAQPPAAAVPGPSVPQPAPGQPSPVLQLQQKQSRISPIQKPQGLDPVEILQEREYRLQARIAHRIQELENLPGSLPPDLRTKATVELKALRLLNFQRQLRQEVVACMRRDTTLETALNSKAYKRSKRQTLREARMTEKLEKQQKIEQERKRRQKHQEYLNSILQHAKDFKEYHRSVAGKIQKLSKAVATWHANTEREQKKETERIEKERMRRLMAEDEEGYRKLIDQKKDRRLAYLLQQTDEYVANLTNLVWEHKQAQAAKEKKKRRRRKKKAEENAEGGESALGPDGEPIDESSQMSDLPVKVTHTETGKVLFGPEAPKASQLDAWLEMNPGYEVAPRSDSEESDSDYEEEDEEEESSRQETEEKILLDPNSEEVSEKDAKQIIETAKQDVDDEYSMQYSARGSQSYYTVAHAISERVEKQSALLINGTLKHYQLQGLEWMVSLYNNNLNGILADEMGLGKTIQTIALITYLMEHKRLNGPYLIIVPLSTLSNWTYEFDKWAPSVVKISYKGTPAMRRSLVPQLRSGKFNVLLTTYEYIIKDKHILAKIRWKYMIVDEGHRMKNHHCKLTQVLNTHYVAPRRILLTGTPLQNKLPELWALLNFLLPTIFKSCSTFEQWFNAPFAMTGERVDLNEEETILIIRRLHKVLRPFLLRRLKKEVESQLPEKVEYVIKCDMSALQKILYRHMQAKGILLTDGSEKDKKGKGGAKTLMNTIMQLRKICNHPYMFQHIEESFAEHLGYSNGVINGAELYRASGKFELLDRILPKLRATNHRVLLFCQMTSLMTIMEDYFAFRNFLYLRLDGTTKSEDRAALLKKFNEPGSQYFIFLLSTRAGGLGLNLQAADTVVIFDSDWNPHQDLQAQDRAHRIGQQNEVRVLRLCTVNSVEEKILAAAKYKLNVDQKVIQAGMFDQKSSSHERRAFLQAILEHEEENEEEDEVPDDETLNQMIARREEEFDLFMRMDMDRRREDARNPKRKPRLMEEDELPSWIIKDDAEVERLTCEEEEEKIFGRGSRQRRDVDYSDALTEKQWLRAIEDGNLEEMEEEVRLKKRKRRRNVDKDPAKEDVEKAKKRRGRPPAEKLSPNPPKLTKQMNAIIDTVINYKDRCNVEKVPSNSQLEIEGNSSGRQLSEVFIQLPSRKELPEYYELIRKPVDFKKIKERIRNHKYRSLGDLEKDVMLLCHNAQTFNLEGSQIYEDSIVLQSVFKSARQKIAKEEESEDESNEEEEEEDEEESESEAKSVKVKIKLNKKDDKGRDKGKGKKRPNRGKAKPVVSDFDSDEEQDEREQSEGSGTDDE
- PROTOCOL TEXT: Luminescence-based cell-based high throughput dose response assay to identify activators of the function of SWI/SNF related, matrix associated, actin dependent regulator of chromatin, subfamily a, member 2 (SMARCA2, BRM).
- Type: functional
Activity calls are given as the source filed them. Rule as the data show it: active = EC50 of 10 µM or less and inactive = more.
Write down the outcome that applies. Available outcomes: 1 = active, 0 = inactive

Past entries and their recorded results:
SMILES CODE	ASSIGNED CATEGORY
Clc1ccc2c(c1)-c1ccccc1C1=NCCN12	1
CCN(CC)CCNC(=O)C(Cl)=C1C(Cl)=C(Cl)C(Cl)=C1Cl	0
COc1ccc2sc3cccc(NCCN(C)C)c3c(=O)c2c1	0

Query: recorded result category for Cc1cc(NC(=O)c2ccco2)ncc1NC(=O)Cc1ccccc1 in this test
0
